system: Jak2 (UniProt O60674)
Sequence (O60674 whole entry, looked up): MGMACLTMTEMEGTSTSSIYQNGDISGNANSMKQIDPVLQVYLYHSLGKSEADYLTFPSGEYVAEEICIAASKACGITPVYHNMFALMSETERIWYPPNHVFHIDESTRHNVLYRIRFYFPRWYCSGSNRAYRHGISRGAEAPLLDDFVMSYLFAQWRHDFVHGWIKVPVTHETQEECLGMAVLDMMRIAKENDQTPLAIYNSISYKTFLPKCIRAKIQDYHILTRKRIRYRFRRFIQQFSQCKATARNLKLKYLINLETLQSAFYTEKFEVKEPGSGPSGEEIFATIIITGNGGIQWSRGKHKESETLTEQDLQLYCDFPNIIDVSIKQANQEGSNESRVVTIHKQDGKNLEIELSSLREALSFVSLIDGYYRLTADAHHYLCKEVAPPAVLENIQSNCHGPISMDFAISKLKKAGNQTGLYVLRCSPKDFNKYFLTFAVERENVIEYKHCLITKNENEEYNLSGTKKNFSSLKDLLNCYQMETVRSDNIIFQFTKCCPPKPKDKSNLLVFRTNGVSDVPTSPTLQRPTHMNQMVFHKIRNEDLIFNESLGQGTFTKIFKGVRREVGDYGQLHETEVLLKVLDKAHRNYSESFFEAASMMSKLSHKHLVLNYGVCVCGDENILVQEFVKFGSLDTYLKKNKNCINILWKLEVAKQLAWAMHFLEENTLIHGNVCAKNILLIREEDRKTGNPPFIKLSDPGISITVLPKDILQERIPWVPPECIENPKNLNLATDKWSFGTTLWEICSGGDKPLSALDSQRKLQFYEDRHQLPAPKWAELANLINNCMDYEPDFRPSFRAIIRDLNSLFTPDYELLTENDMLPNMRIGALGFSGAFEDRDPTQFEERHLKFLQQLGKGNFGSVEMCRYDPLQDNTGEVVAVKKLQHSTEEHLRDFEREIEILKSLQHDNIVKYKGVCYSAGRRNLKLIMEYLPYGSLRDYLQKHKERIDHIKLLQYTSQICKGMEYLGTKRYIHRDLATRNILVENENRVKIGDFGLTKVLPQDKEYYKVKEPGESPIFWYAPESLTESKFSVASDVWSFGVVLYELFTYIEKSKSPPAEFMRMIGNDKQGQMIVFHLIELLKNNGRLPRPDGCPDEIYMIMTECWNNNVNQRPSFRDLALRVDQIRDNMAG
assayText: phosphorylation enrichment, bacterial display (enrichment ratio); higher = better substrate or ligand; peptides without Tyr show the background;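 further: 11-residue human phosphosite peptides and single-mutation variants displayed on the E. coli surface, counted by deep sequencing, each peptide's frequency after selection divided by its frequency in the unselected input library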;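 further: frequency after pTyr selection over input frequency; kinase dosed for 20-30% of maximal phosphorylation in three min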
reportedProperty: phosphorylation enrichment
Answer with a number only.

Lookup: Under Jak2 (UniProt O60674): phosphorylation enrichment value of CSPLLYRVIMS [OR8D4_Y132] ?
Found: 0.992

Lookup: Any idea what phosphorylation enrichment came out for LITTLYSGFLG [KCNQ1_Y267_I268S] on Jak2 (UniProt O60674)?
Found: 0.992

Lookup: Identify the measured phosphorylation enrichment of IAINKYGVSLI [MYO7A_Y2136] for Jak2 (UniProt O60674).
Found: 1.01

Lookup: Query for Jak2 (UniProt O60674): what phosphorylation enrichment does the record show for SFPSTYRYERG [INPPL1_Y661_P659S] ?
Found: 0.767

---
Lookup: Provide value of phosphorylation enrichment for this record tested with Jak2 (UniProt O60674): AQADIYKANFQ [IKBKG_Y308_D311N]
Found: 0.829

Lookup: Enter reported phosphorylation enrichment observed with Jak2 (UniProt O60674) for IENKLCGMSDP [RET_Y1062_Y1062C]
Found: 0.775

Lookup: What reported phosphorylation enrichment corresponds to PIDLFYLMDLS [ITGB2_Y131_YF] on Jak2 (UniProt O60674)?
Found: 1.22

Lookup: What value of phosphorylation enrichment on Jak2 (UniProt O60674) does DRLASYQDKVR [KRT12_Y139_L140Q] have?
Found: 0.577

Lookup: Form field: phosphorylation enrichment recorded for QAINEYEKWLE [MAP9_Y603] with Jak2 (UniProt O60674) (enter value)
Found: 1.73

Lookup: What phosphorylation enrichment appears in the records for this sequence with Jak2 (UniProt O60674)? NVTGHYISPFH [PPA2_Y59]
Found: 0.492

----------
system: Fes (UniProt P07332)
Sequence (P07332 whole entry, looked up): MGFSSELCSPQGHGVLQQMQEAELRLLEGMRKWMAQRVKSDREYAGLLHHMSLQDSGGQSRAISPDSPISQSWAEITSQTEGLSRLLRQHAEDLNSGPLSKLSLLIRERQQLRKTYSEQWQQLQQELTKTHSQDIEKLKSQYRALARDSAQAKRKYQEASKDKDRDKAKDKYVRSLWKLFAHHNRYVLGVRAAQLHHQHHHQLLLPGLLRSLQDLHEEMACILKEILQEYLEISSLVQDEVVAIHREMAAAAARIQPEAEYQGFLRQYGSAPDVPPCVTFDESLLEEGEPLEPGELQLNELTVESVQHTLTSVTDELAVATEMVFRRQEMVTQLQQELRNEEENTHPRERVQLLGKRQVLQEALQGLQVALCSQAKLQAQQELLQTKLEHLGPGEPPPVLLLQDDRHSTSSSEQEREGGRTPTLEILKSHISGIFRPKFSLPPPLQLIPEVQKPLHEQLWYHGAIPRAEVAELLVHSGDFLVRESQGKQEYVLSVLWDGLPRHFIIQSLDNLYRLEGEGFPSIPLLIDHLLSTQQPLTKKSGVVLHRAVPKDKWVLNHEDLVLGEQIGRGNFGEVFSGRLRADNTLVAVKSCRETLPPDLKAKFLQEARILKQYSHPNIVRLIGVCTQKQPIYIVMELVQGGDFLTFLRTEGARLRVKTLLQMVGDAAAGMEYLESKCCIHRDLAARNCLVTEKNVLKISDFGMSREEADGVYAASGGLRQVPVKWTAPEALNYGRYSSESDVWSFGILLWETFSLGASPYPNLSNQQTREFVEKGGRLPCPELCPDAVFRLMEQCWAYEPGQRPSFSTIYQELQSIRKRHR
assayText: phosphorylation enrichment, bacterial display (enrichment ratio); higher = better substrate or ligand; peptides without Tyr show the background
Parameter: phosphorylation enrichment. Scope: all listed entries.
// return just the number, without any unit appended

Lookup: Quick check: phosphorylation enrichment of NYDLDYDSVQP [MYC_Y16] ?
Found: 1.63

Lookup: Could you tell me which phosphorylation enrichment is on file for NKEAICSGYIR [SMCHD1_Y283_Y283C] ?
Found: 0.903

Lookup: What does the record list as phosphorylation enrichment for RRERPYGGGGG [FUS_Y526] ?
Found: 0.467

Lookup: Requested field: phosphorylation enrichment. Item: SLGKGYYDGGC [MC4R_Y35_S36Y]
Found: 1.33

Lookup: Quick check: phosphorylation enrichment of VSTAVYKRFPS [BEST1_Y148] ?
Found: 0.733

Lookup: Request the reported phosphorylation enrichment associated with ALKKPYGVLFK [RPF2_Y59_YF]
Found: 0.722

Lookup: Requested field: phosphorylation enrichment. Item: WIGRKYKKVRF [F8_Y442_R437W]
Found: 0.611

Lookup: I have this sequence here, TFINKYQGKLF [HGD_Y249_V245F] , and I need its recorded phosphorylation enrichment.
Found: 0.589

Lookup: Query: phosphorylation enrichment; subject: ISSLDYISKTK [VAV3_Y294]
Found: 0.696

Lookup: What does the record list as phosphorylation enrichment for YQASYYRRGDR [LTK_Y677_R673Q] ?
Found: 0.713

---
Lookup: Return reported phosphorylation enrichment; argument: ELPEKYSQNIY [PKP2_Y626]
Found: 0.921

Lookup: Name the reported phosphorylation enrichment value associated with the sequence EFITRYIDSLK [PSMA7_Y110_A112D_YF]
Found: 0.878

Lookup: Sample LEITWYPFDVE [RIPOR2_Y316] — what was its phosphorylation enrichment?
Found: 2.12

Lookup: Reported phosphorylation enrichment, sequence PYRFIYMAVQH [PTPN11_Y515_Q510P] : ____
Found: 2.08

Lookup: What measured phosphorylation enrichment goes with KAESWYQTKFE [KRT75_Y342_E337K_YF] ?
Found: 1.07

Lookup: Recorded phosphorylation enrichment for GHGEEYPAAGA [NOTCH3_Y2221] , please?
Found: 0.821

Lookup: Value lookup for phosphorylation enrichment; key = DSDTDYGSGFP [RNASEH2A_Y206_L202S_YF]
Found: 1.01

Lookup: What value of phosphorylation enrichment has been recorded for this entry: GVLKEYVVKVL [CPS1_Y529_G530V]
Found: 1.06

Lookup: Quick check: phosphorylation enrichment of KVMANYMFKAG [MAML2_Y513_YF] ?
Found: 0.675

The measurements presented in this section are drawn from the supplement of paper PMC10065799.
